# ASSAY: qHTS for Inhibitors of human tyrosyl-DNA phosphodiesterase 1 (TDP1): qHTS in cells in presence of CPT; also: nearly all actives have a fitted effect of over 55% in size
# RUN_CONDITIONS: chicken DT40 Tdp1-/-;hTDP1 cells + 20 nM CPT, ATP luminescence, 48 h; series mostly up to 46.2 µM
About 50,000 (12%) of roughly 420,000 compounds were called active. Roughly 26% stayed inconclusive and do not appear here. Calls follow the shape of the dose curve; as a rule, active = well fitted inhibition curve with a large enough effect; inconclusive = small, poorly fitted or top-dose-only effect; inactive = flat fitted curve, though single readings scatter. What follows is part of a selection rich in actives, with near analogues and random picks from the rest.
Lab note: assign the record to one of active, inactive

Could you please tell me the result logged for CCC(NC(=O)c1cc(COc2ccc(F)c(F)c2)on1)c1ccncc1 (stereo unspecified) in this assay?
active

Could you please tell me the result logged for COc1ccc(S(=O)(=O)NC(C)C(=O)N2CCCCCC2)cc1 (stereo unspecified) in this assay?
inactive

Could you please tell me the result logged for Cc1ccc(OCc2cc(C(=O)N(C)CCc3ccccc3)no2)cc1C in this assay?
inactive

Could you please tell me the result logged for CN(Cc1cccnc1)C(=O)c1cc(COc2ccc3ncccc3c2)on1 in this assay?
active

Could you please tell me the result logged for O=C(CSc1nc2[nH]ncc2c(=O)[nH]1)Nc1ccc(F)cc1 in this assay?
inactive

Could you please tell me the result logged for COc1ccc(NC(=O)N2CC3(CCN(C(C)=O)CC3)C2)cc1 in this assay?
inactive

Data origin, for the record: PubChem BioAssay AID686979
